# measurement.target: Human adrenergic α1B receptor (Homo sapiens)
# Sequence (P35368 whole entry): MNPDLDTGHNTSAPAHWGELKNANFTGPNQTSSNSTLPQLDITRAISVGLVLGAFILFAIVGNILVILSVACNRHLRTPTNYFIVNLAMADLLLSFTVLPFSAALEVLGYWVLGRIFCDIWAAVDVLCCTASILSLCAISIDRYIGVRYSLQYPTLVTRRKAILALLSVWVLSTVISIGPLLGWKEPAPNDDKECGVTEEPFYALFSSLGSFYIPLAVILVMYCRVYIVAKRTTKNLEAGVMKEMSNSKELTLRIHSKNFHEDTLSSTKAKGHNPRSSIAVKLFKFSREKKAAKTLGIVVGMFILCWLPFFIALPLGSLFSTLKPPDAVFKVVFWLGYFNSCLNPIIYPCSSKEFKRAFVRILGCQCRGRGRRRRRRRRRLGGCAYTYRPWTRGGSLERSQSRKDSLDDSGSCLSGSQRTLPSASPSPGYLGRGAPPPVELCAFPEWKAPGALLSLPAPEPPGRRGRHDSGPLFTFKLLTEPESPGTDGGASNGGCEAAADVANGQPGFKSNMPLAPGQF
# assay.summary: Radioligand binding, adrenergic α1B (Protocol Group B)
# Parameters: purchased Milipore (Millipore)
# particulars: 0.3 μM compound; Protocol Group B; 0.3 µM
test.readout: Percentage inhibition of ligand binding, Adrenergic α1B (0.3 μM) (%)

Below, each entry is followed by its recorded Percentage inhibition of ligand binding, Adrenergic α1B (0.3 μM) result.
CC(O)(Cn1c2c(c3cc(Cl)cc(F)c31)C1CCCN1CC2)c1cccnc1 (single isomer, unassigned) [53b] | 33
CC(O)(Cn1c2c(c3cc(Cl)cc(F)c31)CN1CCCC1C2)c1cccnc1 (single isomer, unassigned) [63b] | 1
CC(O)(Cn1c2c(c3cc(F)cc(Cl)c31)C1CCCN1CC2)c1cccnc1 (single isomer, unassigned) [89c] | 22
Cc1ccc2c(c1)c1c(n2CC(OC2CCCC2)c2ccncc2)CCN(C)C1 (single isomer, unassigned) [35b] | 17
Cc1ccc2c(c1)c1c(n2CC(C)(O)c2cccnc2)CC2CCC1N2C (single isomer, unassigned) [101d] | 8

1 = Cc1cc(F)cc2c3c(n(CC(C)(O)c4ccncc4)c12)CC1CCCN1C3 (single isomer, unassigned) [78b]
2 = CC(O)(Cn1c2c(c3cc(Cl)cc(F)c31)C1CCCN1CC2)c1ccncc1 (single isomer, unassigned) [52b]
Asked: Compare 1 and 2 by numeric Percentage inhibition of ligand binding, Adrenergic α1B (0.3 μM) and name the larger one. Please respond with the label that marks your chosen entry.
Given back: 2
(2: 73%, 1: 12%)

###

# measurement.target: Human adrenergic α1B receptor (Homo sapiens)
# assay.summary: Radioligand binding, adrenergic α1B (Protocol Group B)
# Parameters: purchased Milipore (Millipore)
# particulars: 0.3 μM compound; Protocol Group B; read-out: Percentage inhibition of ligand binding, Adrenergic α1B (0.3 μM)
# Experimental: To evaluate the activity of compounds in radioligand binding assays, Human adrenergic α1B receptor obtained from recombinant cell membrane from Milipore. Binding experiments were carried out in Tris-HCl buffer (50 mM Tris-HCl buffer, pH 7.4, 10 mM Mgcl2, 1 mM EDTA) as recommended by Milipore. […] Receptor proteins were harvested on 0.33% PEI(poly-ethylenemine) soaked GFC filter mat, the specifically bound [^3H]Prazosin were counted to determine total binding. […]
test.readout: inhibition at 0.3 µM (%)

Look over these answered cases.
Cc1ccc2c(c1)c1c(n2CC(O)c2ccncc2F)CCN2CCCC12 (single isomer, unassigned) [14a] | 87
Cc1cc(F)cc2c3c(n(CC(C)(O)c4cccnc4)c12)CC1CCCN1C3 (single isomer, unassigned) [76d] | 11
Cc1cc(C)c2c(c1)c1c(n2CC(C)(O)c2ccncc2)CCN2CCCC12 (single isomer, unassigned) [19a] | 93
OC(Cn1c2c(c3cc(F)ccc31)C1CCCN1CC2)c1ccncc1 (single isomer, unassigned) [18b] | 63
Cc1ccc2c(c1)c1c(n2CC(OCC2CCC2)c2ccncc2)CCN2CCCC12 (single isomer, unassigned) [138a] | 88

P = Cc1cc(F)c2c(c1)c1c(n2CC(C)(O)c2ccncc2)CCN2CCCC12 (single isomer, unassigned) [81a]
Q = CC(O)(Cn1c2c(c3cc(C(F)(F)F)ccc31)CN1CCCC1C2)c1cccnc1 (stereo not drawn) [85b]
R = Cc1cc(F)c2c(c1)c1c(n2CC(C)(O)c2cccnc2)CC2CCCN2C1 (single isomer, unassigned) [61c]
S = Cc1ccc2c(c1)c1c(n2CC(O)c2ccncc2)CNC2CCCC12 (single isomer, unassigned) [34c]
T = Cc1ccc2c(c1)c1c(n2CC(C)(O)c2cccnc2)CCN(C)C1CO (single isomer, unassigned) [16a]
Asked: Arrange these molecules by their inhibition at 0.3 µM, starting with the largest number. Submit the labels in the order that the ranking request calls for.
Given back: P, S, R, T, Q

P = Cc1cc(F)cc2c3c(n(CC(O)c4ccncc4)c12)CCN1CCCC31 (single isomer, unassigned) [136a]
Q = OC(Cn1c2c(c3cc(Cl)cc(F)c31)C1CCCN1CC2)c1ccncc1 (single isomer, unassigned) [135c]
Asked: Record comparison, field inhibition at 0.3 µM: mark the lower of P and Q . Record your answer as the label of the chosen record.
Given back: Q

I = Cc1cc2c3c(n(CC(C)(O)c4ccncc4)c2cc1Cl)CCN1CCCC31 (single isomer, unassigned) [50a]
II = Cc1cc(F)cc2c3c(n(CC(C)(O)c4cccnc4)c12)CCN1CCCC31 (stereo not drawn) [75b]
Asked: Given I and II , report the one with the higher recorded inhibition at 0.3 µM. Record your answer as the label of the chosen record.
Given back: I
